Values from patent US20250034269A1

- measured on: T1, dimeric murine LTBR-Fc disulfide-linked homodimer biotinylated (P1AE2655) (mouse; human, UniProt P50284 31-223, biotinylated in vitro)
- T1 construct: also called murine LTBR ECD; not shown: human IgG1 Fc-Fragment
- protocol summary: direct ELISA
property name: max. binding (OD)
One number for each entry, in OD.

Query: max. binding (OD); subject: P1AE9457 (antibody, human IgG1, kappa, L234A L235A, V domains shown, human IgG1 PG LALA; from transgenic rabbit immunization; also called LTBR (9457)) VH: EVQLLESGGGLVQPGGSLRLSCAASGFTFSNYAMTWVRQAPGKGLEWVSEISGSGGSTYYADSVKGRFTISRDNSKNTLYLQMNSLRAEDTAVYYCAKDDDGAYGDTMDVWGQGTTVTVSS VL: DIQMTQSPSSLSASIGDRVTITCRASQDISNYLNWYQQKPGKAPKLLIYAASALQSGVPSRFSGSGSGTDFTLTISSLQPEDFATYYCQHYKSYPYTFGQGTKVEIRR 0.167
